- study system: AdoMet synthetase (MAT, MetK) (Pseudomonas aeruginosa, UniProt Q9I5Z0)
- Sequence (Q9I5Z0 1-396): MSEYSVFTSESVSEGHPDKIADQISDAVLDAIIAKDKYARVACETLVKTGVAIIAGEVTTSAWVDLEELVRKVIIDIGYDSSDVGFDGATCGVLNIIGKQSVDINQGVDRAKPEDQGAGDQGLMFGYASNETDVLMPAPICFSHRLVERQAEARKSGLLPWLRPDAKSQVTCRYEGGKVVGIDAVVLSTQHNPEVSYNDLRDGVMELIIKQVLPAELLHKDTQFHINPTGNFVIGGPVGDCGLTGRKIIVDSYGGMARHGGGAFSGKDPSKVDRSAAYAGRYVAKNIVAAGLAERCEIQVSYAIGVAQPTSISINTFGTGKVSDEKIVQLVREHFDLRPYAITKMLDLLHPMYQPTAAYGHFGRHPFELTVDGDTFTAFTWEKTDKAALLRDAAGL
- protocol summary: coupled enzyme assay, Dixon plot
measure name: Ki

Ask | // lookup Ki | system=AdoMet synthetase (MAT, MetK) (Pseudomonas aeruginosa, UniProt Q9I5Z0) | key= NC(=O)SC[C@H](N)C(=O)O
Reply | ~4 mM
